Biological target: T1, Dimeric fibrinogen-like domain of human Ang-2 conjugated to human IgG1 (human)
T1 construct: also called Dimeric Human Ang-2FD; Human Ang-2FD-hFc
T1 sequence (chain, as listed by the source limits assumed): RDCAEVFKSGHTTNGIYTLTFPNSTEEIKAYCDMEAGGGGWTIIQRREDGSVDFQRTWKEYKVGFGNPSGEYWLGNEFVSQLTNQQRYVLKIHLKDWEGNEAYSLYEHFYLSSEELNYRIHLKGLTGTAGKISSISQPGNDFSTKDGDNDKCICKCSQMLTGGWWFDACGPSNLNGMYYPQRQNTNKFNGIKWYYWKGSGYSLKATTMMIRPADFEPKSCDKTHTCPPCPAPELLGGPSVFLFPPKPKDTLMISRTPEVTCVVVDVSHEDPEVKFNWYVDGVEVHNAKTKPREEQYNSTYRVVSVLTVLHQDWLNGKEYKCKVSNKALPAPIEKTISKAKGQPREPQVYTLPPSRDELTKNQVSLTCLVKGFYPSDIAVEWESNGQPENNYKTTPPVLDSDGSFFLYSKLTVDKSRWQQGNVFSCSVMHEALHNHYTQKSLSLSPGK
Test: blocking ELISA, 16.67 nM antibody, coated hTie-2-mFc
Each entry below carries its reported Percent Blocking of Ang-2FD Binding to Tie-2.
Remember to follow the number with its unit.

Some solved entries appear below for comparison.
>>> reported_result("H2M744N (antibody, V domains shown) VH: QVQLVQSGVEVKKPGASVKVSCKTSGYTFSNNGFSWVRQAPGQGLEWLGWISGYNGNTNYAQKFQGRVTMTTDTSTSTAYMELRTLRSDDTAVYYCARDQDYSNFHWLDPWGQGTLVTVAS VL: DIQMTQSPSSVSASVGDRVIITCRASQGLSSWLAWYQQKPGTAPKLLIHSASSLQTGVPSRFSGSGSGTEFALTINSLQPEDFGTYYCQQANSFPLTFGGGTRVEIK")
"99.5%"
>>> reported_result("H1M724N (antibody, V domains shown) VH: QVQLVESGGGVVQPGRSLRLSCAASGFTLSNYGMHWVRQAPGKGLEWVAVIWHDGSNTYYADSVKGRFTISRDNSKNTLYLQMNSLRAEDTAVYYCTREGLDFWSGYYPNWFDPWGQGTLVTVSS VL: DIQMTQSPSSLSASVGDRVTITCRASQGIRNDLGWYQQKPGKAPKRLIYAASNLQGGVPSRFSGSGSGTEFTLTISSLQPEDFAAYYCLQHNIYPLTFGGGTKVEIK")
"99.5%"
>>> reported_result("H2M743N (antibody, V domains shown) VH: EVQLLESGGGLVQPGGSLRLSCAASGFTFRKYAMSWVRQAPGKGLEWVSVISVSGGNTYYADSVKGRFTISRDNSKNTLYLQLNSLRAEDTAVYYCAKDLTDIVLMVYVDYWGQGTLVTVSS VL: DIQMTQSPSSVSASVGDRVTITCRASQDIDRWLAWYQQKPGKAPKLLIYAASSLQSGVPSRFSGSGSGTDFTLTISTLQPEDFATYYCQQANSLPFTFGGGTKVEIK")
"99.6%"
>>> reported_result("H2M750N (antibody, V domains shown) VH: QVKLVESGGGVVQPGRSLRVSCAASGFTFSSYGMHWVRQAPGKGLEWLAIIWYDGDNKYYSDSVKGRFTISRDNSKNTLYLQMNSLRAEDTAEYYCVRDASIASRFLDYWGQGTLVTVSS VL: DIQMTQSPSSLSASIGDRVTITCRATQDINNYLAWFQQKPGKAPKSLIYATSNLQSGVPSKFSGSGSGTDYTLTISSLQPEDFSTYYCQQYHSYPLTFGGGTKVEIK")
"99.4%"

Kindly indicate its recorded Percent Blocking of Ang-2FD Binding to Tie-2. Item: H2M730N (antibody, V domains shown) VH: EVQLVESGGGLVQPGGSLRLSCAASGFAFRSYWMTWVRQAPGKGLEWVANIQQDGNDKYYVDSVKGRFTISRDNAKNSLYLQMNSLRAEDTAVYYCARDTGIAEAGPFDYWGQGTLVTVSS VL: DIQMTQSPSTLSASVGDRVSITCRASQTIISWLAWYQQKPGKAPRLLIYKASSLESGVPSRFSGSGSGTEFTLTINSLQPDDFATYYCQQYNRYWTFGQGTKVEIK
98.9%
